Where these numbers come from: PubChem BioAssay (NCATS)

experiment: qHTS of pediatric cancer cell lines to identify multiple opportunities for drug repurposing: Primary screen for OHS-50 cells (AID 1347103); conditions: OHS-50 osteosarcoma viability, CellTiter-Glo luminescence, 48 h; series mostly up to 57.3 µM; further: nearly all actives have a fitted effect of over 40% in size
Records with an inconclusive call do not appear. Active and inactive are the calls of the source. The call rests on the fitted dose curve; in most records, active means well fitted cell-killing curve with a large enough effect; inconclusive means small, poorly fitted or top-dose-only effect; inactive means no such curve, though single readings can be large or run the other way.
Your answer must be one of the following: 1 (yes) = active, 0 (no) = inactive

Solved entries:
CCNC(=O)c1noc(-c2cc(C(C)C)c(O)cc2O)c1-c1ccc(CN2CCOCC2)cc1 : 1 (yes)
O=c1[nH]c(=O)n([C@H]2C[C@@H](O)[C@@H](CO)O2)cc1I : 0 (no)
CC[C@H](C)n1cc(C)c2c(C(=O)NCc3c(C)cc(C)[nH]c3=O)cc(-c3ccc(N4CCNCC4)nc3)cc21 : 1 (yes)

Next up:
Recorded test call requested for `O=C1CN2Cc3c(ccc(Cl)c3Cl)N=C2N1`
1 (yes)
